# Organism: Cavia porcellus
# Test name: Selectivity ratio of Ki for Dunkin Hartley guinea pig brain sigma-2 receptor to Ki for Dunkin Hartley guinea pig brain sigma-1 receptor
Observed property: Ratio Ki

(I) Cc1cc(OCCCN2CCCC2)nc(-c2ccccc2)n1
(II) COc1ccc(-c2nc(C)c(Cl)c(OCCCN3CCCCC3)n2)cc1
Input line: # query: argmin of Ratio Ki over I and II To answer, give the label that identifies your chosen option.
Output line: I

(1) COc1cc(OCCCN2CCCC2)nc(-c2ccccc2)n1
(2) Cc1nc(C)c(Cl)c(OCCCN2CCCCC2)n1
Input line: Choose between 1 and 2 : whose measured Ratio Ki value is numerically larger? To answer, give the label that identifies your chosen option.
Output line: 1
(1: 46.2, 2: 18.4)

(P) CCCN(CCC)CCCOc1cc(C)nc(-c2ccccc2)n1
(Q) Cc1cc(OCCOCCN2CCOCC2)nc(-c2ccccc2)n1
Input line: # query: argmin of Ratio Ki over P and Q To answer, give the label that identifies your chosen option.
Output line: Q
